Data provenance is patent US12522593B2.

# target_entity: CTSC in U937 cells (Homo sapiens (Human))
# Sequence (P53634 25-463): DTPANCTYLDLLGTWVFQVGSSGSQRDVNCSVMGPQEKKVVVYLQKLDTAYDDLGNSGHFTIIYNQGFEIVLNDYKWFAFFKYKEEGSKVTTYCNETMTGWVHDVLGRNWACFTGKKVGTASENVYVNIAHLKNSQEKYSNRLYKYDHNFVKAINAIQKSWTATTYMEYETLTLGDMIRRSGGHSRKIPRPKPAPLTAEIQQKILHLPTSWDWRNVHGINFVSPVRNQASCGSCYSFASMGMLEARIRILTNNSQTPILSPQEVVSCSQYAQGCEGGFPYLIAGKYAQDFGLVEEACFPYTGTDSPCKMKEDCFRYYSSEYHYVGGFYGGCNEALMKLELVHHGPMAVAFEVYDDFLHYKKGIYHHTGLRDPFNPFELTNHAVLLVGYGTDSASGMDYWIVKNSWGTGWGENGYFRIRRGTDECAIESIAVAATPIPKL
# protocol_notes: Intracellular CTSC inhibition assay (in vitro), LLOMe-induced cell death in U937 cells
# Format: cell-based
# applied_conditions: 3 hours culture, CellTiter-Glo
result_type: IC50

Here's what some known entries look like.
compound	target_entity	IC50
CC(C)C1(c2nc(C3CC(F)(F)C3)no2)CCN(C(=O)[C@@H]2C[C@@H](O)C3(CCC3)CN2)CC1	CTSC in U937 cells (Homo sapiens (Human))	0.49 nM
CC(C)C1(c2noc(C3CCC(F)(F)CC3)n2)CCN(C(=O)[C@@H]2C[C@@H](O)C(C)(C)CN2)CC1	CTSC in U937 cells (Homo sapiens (Human))	0.71 nM
O=C([C@@H]1C[C@@H](O)C2(CCC2)CN1)N1CCC(C(=O)N2CCO[C@@H](C(F)(F)F)C2)(C(F)(F)F)CC1	CTSC in U937 cells (Homo sapiens (Human))	10.1 nM

Give me IC50 for each of these compounds, listed below.
1. CN(CC1CCC(F)(F)CC1)C(=O)C1(C(F)(F)F)CCN(C(=O)[C@@H]2C[C@@H](O)C3(CCC3)CN2)CC1
2. CC1(C)CN[C@H](C(=O)N2CCC(c3noc(C4CCC(F)(F)CC4)n3)(C3CC3)CC2)C[C@H]1O
3. O=C([C@@H]1C[C@@H](O)C2(CCC2)CN1)N1CCC(c2ccnc(N3CCC(F)(F)CC3)c2)CC1
4. O=C([C@@H]1C[C@@H](O)C2(CCC2)CN1)N1CCC(c2noc(C3CCC(F)(F)CO3)n2)(C(F)(F)F)CC1 (some centres unmarked) [Example 50]
5. CC(C)C1(c2nnc(C3CCC(F)(F)CC3)o2)CCN(C(=O)[C@@H]2C[C@@H](O)C3(CCC3)CN2)CC1

["1.62 nM", "0.65 nM", "0.54 nM", "0.8 nM", "4 nM"]

Please report IC50 for every entry that follows.
1. O=C([C@@H]1C[C@@H](O)C2(CCC2)CN1)N1CCC(c2nnn(C3CCC(F)(F)CC3)n2)(C(F)(F)F)CC1
2. C[C@]1(F)C[C@H](c2nc(C3(C(F)(F)F)CCN(C(=O)[C@@H]4C[C@@H](O)C5(CCC5)CN4)CC3)no2)C1
3. CC(C)C1(c2noc(C3CCC(F)(F)CC3)n2)CCN(C(=O)[C@@H]2C[C@H](O)CN2)CC1
4. O=C([C@@H]1CC[C@@]2(CCO2)CN1)N1CCC(c2nc(C3CCC(F)(F)CC3)cs2)(C(F)(F)F)CC1

["0.46 nM", "0.35 nM", "> 200 nM", "5.64 nM"]

Give me IC50 for each of these compounds, listed below.
1. CC(C)C1(c2nc(C3CCC(F)(F)CC3)no2)CN(C(=O)[C@@H]2C[C@@H](O)C3(CCC3)CN2)C1
2. O=C([C@@H]1C[C@@H](O)C2(CCC2)CN1)N1CCC(c2noc(C3CC(F)(F)C3)n2)(C(F)(F)F)CC1

1: 0.98 nM; 2: 0.49 nM
